Reference for the values: patent US20260144788A1

Target: SHP2 protein (Homo sapiens)
Sequence (Q06124 1-593): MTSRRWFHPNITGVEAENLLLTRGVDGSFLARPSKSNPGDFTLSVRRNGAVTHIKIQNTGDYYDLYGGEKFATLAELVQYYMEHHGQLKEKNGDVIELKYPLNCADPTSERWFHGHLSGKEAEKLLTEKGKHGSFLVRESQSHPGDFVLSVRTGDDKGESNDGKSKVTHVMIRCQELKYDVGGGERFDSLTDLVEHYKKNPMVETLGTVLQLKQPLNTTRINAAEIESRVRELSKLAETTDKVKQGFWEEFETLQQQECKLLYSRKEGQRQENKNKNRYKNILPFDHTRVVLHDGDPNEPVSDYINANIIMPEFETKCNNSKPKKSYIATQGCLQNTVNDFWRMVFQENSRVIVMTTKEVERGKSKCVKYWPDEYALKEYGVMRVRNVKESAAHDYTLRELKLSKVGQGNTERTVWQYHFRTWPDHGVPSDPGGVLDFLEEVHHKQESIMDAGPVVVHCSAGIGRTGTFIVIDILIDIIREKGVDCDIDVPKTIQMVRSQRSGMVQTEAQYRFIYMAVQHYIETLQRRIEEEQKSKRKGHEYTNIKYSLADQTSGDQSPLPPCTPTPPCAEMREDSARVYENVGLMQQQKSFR
Assay: Measurement of SHP2 protein degradation in NCI-H358 cells (western blotting)
Type: cell-based
Design: endogenous in cells; host or cells: NCI-H358
Details: 0.01 μM, harvested after 24 hours
quantityName: SHP2% degradation (%)

Known results for compounds:
[
  {
    "compound": "CC(=O)N[C@H](C(=O)N1C[C@H](O)C[C@H]1C(=O)N[C@@H](C)c1ccc(-c2scnc2C)cc1O[C@H]1CC[C@H](C(=O)N2CC(Nc3nccc(Sc4cnc(N5CCC(C)(CN)CC5)cn4)c3Cl)C2)CC1)C(C)(C)C",
    "unitOfMeasurement": "%",
    "SHP2% degradation": 87.1
  },
  {
    "compound": "CC(=O)N[C@H](C(=O)N1C[C@H](O)C[C@H]1C(=O)NCc1ccc(-c2scnc2C)cc1O[C@H]1CC[C@H](C(=O)N2CCC(N3CCOc4c(Sc5cnc(N6CCC7(CC6)CO[C@@H](C)[C@H]7N)cn5)cccc43)CC2)CC1)C(C)(C)C",
    "unitOfMeasurement": "%",
    "SHP2% degradation": 91.0
  }
]

1. CC(=O)N[C@H](C(=O)N1C[C@H](O)C[C@H]1C(=O)NCc1ccc(-c2scnc2C)cc1O[C@H]1CC[C@H](C(=O)N2CC(Nc3nccc(Sc4cnc(N5CCC(C)(N)CC5)cn4)c3Cl)C2)CC1)C(C)(C)C
2. Cc1cnn(C(C(=O)N2C[C@H](O)C[C@H]2C(=O)NCc2ccc(-c3scnc3C)cc2OC2CCN(C(=O)C3CCN(c4nccc(Sc5cnc(N6CCC(C)(CN)CC6)cn5)c4Cl)CC3)CC2)C(C)C)c1 (stereo partly shown) [Example 100]
# argmax over SHP2% degradation for candidates 1 and 2 Select an item and report its label.
1
(1: 83.6%, 2: −65.7%)

====

Target: UniProtKB Q06124
Sequence (Q06124 1-593): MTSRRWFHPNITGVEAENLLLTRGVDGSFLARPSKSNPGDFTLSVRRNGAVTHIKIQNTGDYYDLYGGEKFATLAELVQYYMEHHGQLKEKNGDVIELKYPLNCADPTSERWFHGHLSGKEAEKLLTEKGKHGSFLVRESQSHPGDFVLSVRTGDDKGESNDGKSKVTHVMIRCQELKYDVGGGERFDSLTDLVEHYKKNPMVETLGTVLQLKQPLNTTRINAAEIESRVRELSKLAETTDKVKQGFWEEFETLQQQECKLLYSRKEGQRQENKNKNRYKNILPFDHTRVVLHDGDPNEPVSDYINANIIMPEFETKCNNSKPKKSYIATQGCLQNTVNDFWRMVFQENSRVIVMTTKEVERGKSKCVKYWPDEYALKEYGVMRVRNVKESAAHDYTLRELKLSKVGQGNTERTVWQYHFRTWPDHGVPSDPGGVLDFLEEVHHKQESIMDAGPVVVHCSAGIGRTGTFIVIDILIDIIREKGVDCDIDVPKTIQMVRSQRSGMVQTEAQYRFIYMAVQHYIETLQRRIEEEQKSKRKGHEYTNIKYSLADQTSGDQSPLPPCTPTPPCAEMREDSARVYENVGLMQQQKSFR
Test: Measurement of SHP2 protein degradation in NCI-H358 cells (western blotting)
Type: cell-based
Design: endogenous in cells; host or cells: NCI-H358
Details: 0.01 μM, harvested after 24 hours
Experimental: H358 cells were treated with the synthesized Example compounds, and the amount of SHP2 protein present in the cells was measured using western blotting detection. The protocol for the experiment using H358 cells is as follows. […] [Cell lysis and sample preparation] […] After shaking for 10 seconds with a SYNERGY H1 microplate reader from BioTek, the absorbance was measured at 562 nm. The protein was quantified using the measured value to make a sample, which was then incubated at 70° C. for 10 minutes. […]
quantityName: SHP2% degradation (%)

Answered examples (2):
[
  {
    "compound": "CC(=O)N[C@H](C(=O)N1C[C@H](O)C[C@H]1C(=O)NCc1ccc(-c2scnc2C)cc1OC1CCN(C(=O)C2CCN(c3nccc(Sc4cnc(N5CCC(C)(N)CC5)cn4)c3Cl)CC2)CC1)C(C)(C)C",
    "targetSystem": "UniProtKB Q06124",
    "SHP2% degradation, %": 90.0
  },
  {
    "compound": "Cc1cc(C(C(=O)N2C[C@H](O)C[C@H]2C(=O)NCc2ccc(-c3scnc3C)cc2O[C@H]2CC[C@H](C(=O)N3CC(Nc4cccc(Sc5cnc(N6CCC(C)(CN)CC6)cn5)c4Cl)C3)CC2)C(C)C)on1 (stereo partly shown) [Example 114]",
    "targetSystem": "UniProtKB Q06124",
    "SHP2% degradation, %": 48.3
  }
]

I. CC(=O)N[C@H](C(=O)N1C[C@H](O)C[C@H]1C(=O)NCc1ccc(-c2scnc2C)cc1O[C@H]1CC[C@H](C(=O)N2CC(N3CCc4c(Sc5cnc(N6CCC7(CC6)CO[C@@H](C)[C@H]7N)cn5)cccc43)C2)CC1)C(C)(C)C
II. CC(=O)N[C@H](C(=O)N1C[C@H](O)C[C@H]1C(=O)NCc1ccc(-c2scnc2C)cc1OC1CCN(C(=O)C2CCN(c3cccc(Sc4cnc(N5CCC6(CC5)CO[C@@H](C)[C@H]6N)c(CO)n4)c3Cl)CC2)CC1)C(C)(C)C
Looking at recorded values for SHP2% degradation, does I or II come in lower? Output the label that corresponds to your choice.
I
(I: 54.4%, II: 98.3%)
